- System: Trypanosoma cruzi
- Assay remarks: Antitrypanosomal activity against Trypanosoma cruzi
- Type: functional, organism-based
Measurement label: IC50 (µM)

Cn1c2c3ccccc3nc-2c(-c2c3nc4ccccc4c-3n(C)c3ccccc23)c2ccccc21 [BISCRYPTOLEPINE]: 3.48
Cn1c2ccccc2c2c[n+](C)c3ccccc3c21.[I-]: 236
Cn1c2c3ccccc3nc-2c(-n2c3ccccc3c3nc4ccccc4cc32)c2ccccc21: 84.4

----------
- Assay remarks: Displacement of methyl green dye from DNA
pIC50: −log10 of the molar value. Structures can show the parent of a compound that is named as a salt.
Quick reference for pIC50 among some compounds
Measurement label: pIC50

Cn1cc2c3ccccc3nc-2c2ccccc21 [ISOCRYPTOLEPINE HYDROCHLORIDE]: 3.92
C[n+]1c2ccccc2cc2[n-]c3ccccc3c21 [CRYPTOLEPINE HYDROCHLORIDE]: 4.19
C[n+]1cc2[nH]c3ccccc3c2c2ccccc21.[Cl-] [ISONEOCRYPTOLEPINE HYDROCHLORIDE]: 3.91
Cn1c2nc3ccccc3c-2cc2ccccc21 [NEOCRYPTOLEPINE HYDROCHLORIDE]: 4.03
